- TARGET_ENTITY: Human immunodeficiency virus type 1 integrase (Human immunodeficiency virus 1)
- Sequence (Q7ZJM1 whole entry): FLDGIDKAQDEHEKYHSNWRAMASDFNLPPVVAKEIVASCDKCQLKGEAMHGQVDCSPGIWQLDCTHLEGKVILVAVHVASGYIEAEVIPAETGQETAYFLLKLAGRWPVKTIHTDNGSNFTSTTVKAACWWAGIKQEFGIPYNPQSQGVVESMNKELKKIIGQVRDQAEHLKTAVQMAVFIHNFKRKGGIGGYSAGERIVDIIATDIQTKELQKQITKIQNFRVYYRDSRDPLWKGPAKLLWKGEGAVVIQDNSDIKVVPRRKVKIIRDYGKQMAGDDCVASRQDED
- METHOD_SUMMARY: Inhibition of the 3'-end joining activity of HIV-1 integrase
Known pIC50 of a selection of compounds
The scale used: pIC50 is minus the common logarithm of the concentration in molar units.

I'd like to know its pIC50. The compound in question is O=C1Sc2ccccc2C(=O)N2CCCCC12 (configuration not stated)
3.46

I'd like to know its pIC50. The compound in question is O=C1Sc2ccc(Br)cc2C(=O)N2CSCC12 (configuration not stated)
4.13

I'd like to know its pIC50. The compound in question is O=C1c2ccccc2SCC2CSC(c3ccccc3)N12 (configuration not stated)
3.42

I'd like to know its pIC50. The compound in question is O=C1Sc2cc([N+](=O)[O-])ccc2C(=O)N2CSCC12 (configuration not stated)
4.00

I'd like to know its pIC50. The compound in question is Cc1ccc2c(c1)C(=O)N1CCSC1C(=O)S2 (configuration not stated)
4.26

I'd like to know its pIC50. The compound in question is O=C1Sc2ccc(Cl)cc2C(=O)N2CSCC12 (configuration not stated)
3.80

I'd like to know its pIC50. The compound in question is O=C1Sc2ccc(Cl)cc2C(=O)N2CCSC12 (configuration not stated)
3.92

I'd like to know its pIC50. The compound in question is COc1ccc2c(c1)C(=O)N1C[S+]([O-])CC1C(=O)S2 (configuration not stated)
3.85

I'd like to know its pIC50. The compound in question is `O=C1Sc2ccccc2Cn2cccc21`
3.52

I'd like to know its pIC50. The compound in question is O=C1Sc2ccccc2C(=O)N2CSCC12 (configuration not stated)
3.64

I'd like to know its pIC50. The compound in question is O=C1Sc2ccccc2C(=O)N2C[S+]([O-])CC12 (configuration not stated)
3.67

I'd like to know its pIC50. The compound in question is O=C1Sc2ccccc2C(=O)N2CCSC12 (configuration not stated)
3.84

I'd like to know its pIC50. The compound in question is Cc1ccc2c(c1)C(=O)N1CSCC1C(=O)S2 (configuration not stated)
4.20

I'd like to know its pIC50. The compound in question is O=C1Sc2cc3ccccc3cc2C(=O)N2CCSC12 (configuration not stated)
4.33

I'd like to know its pIC50. The compound in question is COc1cc2c(cc1OC)C(=O)N1CSCC1C(=O)S2 (configuration not stated)
3.48

I'd like to know its pIC50. The compound in question is O=C1Sc2cc3ccccc3cc2C(=O)N2CSCC12 (configuration not stated)
4.00

I'd like to know its pIC50. The compound in question is Cc1ccc2c(c1)C(=O)N1CC[S+]([O-])C1C(=O)S2 (configuration not stated)
3.23

I'd like to know its pIC50. The compound in question is COc1ccc2c(c1)C(=O)N1CSCC1C(=O)S2 (configuration not stated)
3.81

Reference source for all entries: ChEMBL document CHEMBL1132359
